# Reactivity (%) annotations
biological target: S#097: VL-L2-VH CAR-T; assay: flow cytometry on CAR-T cells; PE-labeled secondary antibody; PE-positive cells / total cells
assayReadout: Reactivity (%)

- binder: "2D12-B12 (antibody, V domains shown) VH: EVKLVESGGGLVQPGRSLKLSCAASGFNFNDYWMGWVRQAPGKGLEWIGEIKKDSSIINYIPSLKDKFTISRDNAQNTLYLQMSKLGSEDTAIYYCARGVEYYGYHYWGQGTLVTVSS VL: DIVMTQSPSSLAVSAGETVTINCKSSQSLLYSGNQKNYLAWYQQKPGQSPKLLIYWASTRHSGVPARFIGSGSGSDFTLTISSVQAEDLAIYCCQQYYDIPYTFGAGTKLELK"
  assayReadout: "Reactivity (%)"
  measuredNumber: 0.3
- binder: "3A4-A10-7 (antibody, V domains shown) VH: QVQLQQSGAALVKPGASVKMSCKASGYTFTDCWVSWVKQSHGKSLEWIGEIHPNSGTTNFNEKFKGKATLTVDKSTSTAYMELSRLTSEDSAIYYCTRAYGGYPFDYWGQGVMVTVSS VL: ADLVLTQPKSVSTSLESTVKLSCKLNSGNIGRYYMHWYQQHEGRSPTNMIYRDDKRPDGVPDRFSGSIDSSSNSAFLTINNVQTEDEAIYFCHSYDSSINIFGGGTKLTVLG"
  assayReadout: "Reactivity (%)"
  measuredNumber: 0.1
- binder: "4B9-B11 (antibody, V domains shown) VH: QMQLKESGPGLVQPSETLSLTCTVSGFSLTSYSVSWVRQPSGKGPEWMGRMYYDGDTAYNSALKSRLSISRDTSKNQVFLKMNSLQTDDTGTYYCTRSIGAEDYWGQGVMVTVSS VL: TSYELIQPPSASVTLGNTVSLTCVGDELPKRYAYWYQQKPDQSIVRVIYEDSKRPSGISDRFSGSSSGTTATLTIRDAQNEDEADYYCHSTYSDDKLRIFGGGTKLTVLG"
  assayReadout: "Reactivity (%)"
  measuredNumber: 0.1
- binder: "3E7-C1 (antibody, V domains shown) VH: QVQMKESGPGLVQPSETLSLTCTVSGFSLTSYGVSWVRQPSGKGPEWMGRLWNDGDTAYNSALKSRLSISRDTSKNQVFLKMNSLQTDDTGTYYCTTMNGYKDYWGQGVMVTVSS VL: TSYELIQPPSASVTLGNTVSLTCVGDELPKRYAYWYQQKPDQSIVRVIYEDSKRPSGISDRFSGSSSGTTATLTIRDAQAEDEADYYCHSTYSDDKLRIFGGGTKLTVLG"
  assayReadout: "Reactivity (%)"
  measuredNumber: 0
